Values compiled from PubChem BioAssay (NCATS).

Molecular target: Bile acid receptor (Homo sapiens)
Experiment: qHTS assay for small molecule agonists of farnesoid X receptor signaling (AID 588527);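 further: 0% = vehicle basal and 100% = reference agonist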
Conditions: HEK293T FXR-UAS-bla, beta-lactamase ratio, 16 h; stronger effect = higher value
Records with an inconclusive call do not appear.
quantity.measured: activation (%)
Respond with the bare value in %.

Guide cases for activation, answers given:
                                   compound  numeric_readout
0             CNc1nc(=O)n(C2CCCCC2)c(=O)n1C            -6.04
1  COC(=O)C1CCC(C(=O)OC)CC1 (stereo unspecified)            -4.06
2  CO/N=C(/C1=NOCCO1)c1ccccc1Oc1ncnc(Oc2ccccc2Cl)c1F             7.75
3                 CCCCOC(=O)/C=C\C(=O)OCCCC             -3.9
4                Cc1cc(C)cc([N+](=O)[O-])c1           -0.797

Okay, next one:
Consider the compound CCOP(N)(=O)Oc1ccc(SC)c(C)c1 (stereo unspecified) and give its measured activation.
3.26

###

Assay: Cell Viability - LYMP2-004 (AID 966);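 further: cells exposed to compound for 24 h; nearly all actives have a fitted effect of over 65% in size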
Conditions: LYMP2-004 lymphoblastoid cell viability, qHTS; series mostly up to 92.2 µM
Records with an inconclusive call do not appear. The source made the active and inactive calls. The call rests on the fitted dose curve; in most records, active means well fitted cell-killing curve with a large enough effect; inconclusive means small, poorly fitted or top-dose-only effect, or effect the other way; inactive means no such curve, though single readings can be large or run the other way.
Please reply with one of these outcomes: active, inactive

Solved entries (count: 3):
In [3]: df
Out[3]:
                           substance_smiles  class_label
0               Oc1c(Br)c(Br)c(Br)c(Br)c1Br     inactive
1        c1ccc2cc3c(cc2c1)-c1cccc2cccc-3c12     inactive
2  CC/C(=C(\c1ccccc1)c1ccc(OCCN(C)C)cc1)c1ccc(O)cc1       active

Now for another entry.
Which outcome was entered for the compound `N#CC(Cl)Cl` in this test?
inactive

###

Test: qHTS assay for environmental chemicals that activate the Aryl hydrocarbon Receptor (AhR) signaling pathway (AID 651777); further: % of control where 0% means no effect; nearly all actives have a fitted effect of over 15% in size
Conditions: 1A2-DRE human hepatoma cells, luciferase, 24 h; stronger effect = higher value
Results filed as inconclusive are left out.
quantity.measured: activation (%)
Respond with the bare value in %.

Guide cases for activation, answers given:
In [3]: df
Out[3]:
                                   compound  quantity_measured  numeric_readout
0  O=C(O)C(F)(F)C(F)(F)C(F)(F)C(F)(F)C(F)(F)F         activation            0.455
1  CC1(C)[C@H](C(=O)O[C@H](C#N)c2cccc(Oc3ccccc3)c2)[C@@H]1/C=C(\Cl)C(F)(F)F         activation            0.227
2  CCOP(=O)(NC(C)C)Oc1ccc(S(C)(=O)=O)c(C)c1 (stereo not given)         activation             1.16
3  CCCOc1nn(C(=O)NS(=O)(=O)c2ccccc2C(=O)OC)c(=O)n1C         activation            0.148
4  COc1ccc(/C(=C/C(=O)N2CCOCC2)c2ccc(Cl)cc2)cc1OC         activation           -0.517

Consider the compound `CCNc1nc(NC(C)C)nc(OC)n1` and give its measured activation.
0.686

Consider the compound `CCOP(=S)(S)OCC` and give its measured activation.
0.356

Consider the compound CCCCCCCCCCCCCCC(Br)C(=O)O (stereo not given) and give its measured activation.
-0.608

Consider the compound O=C(O)C1(O)c2ccccc2-c2ccc(Cl)cc21 (stereo not given) and give its measured activation.
9.46

Consider the compound CC1(C)CCC(Cc2ccc(Cl)cc2)C1(O)Cn1cncn1 (stereo not given) and give its measured activation.
-1.24
